- system_name: glucocorticoid receptor (Rattus norvegicus, UniProt P06536)
- Construct: The thymus was removed and put into ice-cold saline; from tissue; host or cells: thymus of male Sprague-Dawley rats, 20,000×g supernatant of homogenate
- Sequence (P06536 1-795): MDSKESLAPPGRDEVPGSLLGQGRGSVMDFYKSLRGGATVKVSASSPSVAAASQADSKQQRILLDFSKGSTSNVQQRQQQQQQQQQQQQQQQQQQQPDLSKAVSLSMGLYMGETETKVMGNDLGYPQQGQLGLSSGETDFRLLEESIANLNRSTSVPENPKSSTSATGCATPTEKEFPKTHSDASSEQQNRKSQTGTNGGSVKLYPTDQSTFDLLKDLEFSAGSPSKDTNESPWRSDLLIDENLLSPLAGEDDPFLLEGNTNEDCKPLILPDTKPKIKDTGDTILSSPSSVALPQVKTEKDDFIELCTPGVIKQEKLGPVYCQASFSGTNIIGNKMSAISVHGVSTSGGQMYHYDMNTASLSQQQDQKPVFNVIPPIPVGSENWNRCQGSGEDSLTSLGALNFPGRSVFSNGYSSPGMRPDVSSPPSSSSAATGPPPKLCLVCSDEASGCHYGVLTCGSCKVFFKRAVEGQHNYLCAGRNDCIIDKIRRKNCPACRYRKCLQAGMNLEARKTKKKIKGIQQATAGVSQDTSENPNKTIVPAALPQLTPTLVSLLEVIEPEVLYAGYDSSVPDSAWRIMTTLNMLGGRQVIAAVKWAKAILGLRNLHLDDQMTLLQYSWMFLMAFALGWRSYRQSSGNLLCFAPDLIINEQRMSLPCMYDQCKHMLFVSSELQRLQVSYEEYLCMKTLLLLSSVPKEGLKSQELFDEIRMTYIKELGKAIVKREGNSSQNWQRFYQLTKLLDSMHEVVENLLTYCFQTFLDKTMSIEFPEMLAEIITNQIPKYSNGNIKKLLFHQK
- measurement_protocol: Relative binding affinity to the glucocorticoid receptor: competition with 3H-labelled dexamethasone in rat thymus 20,000×g supernatant
- reported_conditions: curves compared at the 50% specific binding level of [3H]dexamethasone, referenced to budesonide, assigned RBA = 1, about 24 h at 0° C.
Lab note: anything with relative binding affinities (RBA) to the glucocorticoid receptor at or over 0.2 counts as rule met; the rest go in rule not met.

CCC[C@@H]1O[C@@H]2C[C@H]3[C@@H]4CCC5=CC(=O)C=C[C@]5(C)[C@H]4[C@@H](O)C[C@]3(C)[C@]2(C(=O)OC(C)OC(=O)OCC)O1 (stereo partly shown): rule not met
CCOC(=O)OC(C)(C)OC(=O)C12OC(C)(C)OC1CC1C3CC(F)C4=CC(=O)C=CC4(C)C3(F)C(O)CC12C (stereo not shown): rule not met
CCC[C@@H]1O[C@@H]2C[C@H]3[C@@H]4C[C@H](F)C5=CC(=O)C=C[C@]5(C)[C@@]4(F)[C@@H](O)C[C@]3(C)[C@]2(C(=O)OC(C)OC(=O)OCC)O1 (single isomer, unassigned): rule met
CCC[C@@H]1O[C@@H]2C[C@H]3[C@@H]4C[C@H](F)C5=CC(=O)C=C[C@]5(C)[C@@]4(F)[C@@H](O)C[C@]3(C)[C@]2(C(=O)OC(C)OC(=O)OC(C)C)O1 (single isomer, unassigned): rule met
CC(C)OC(=O)OC(C)OC(=O)C12OC(C)(C)OC1CC1C3CC(F)C4=CC(=O)C=CC4(C)C3(F)C(O)CC12C (single isomer, unassigned): rule met
CCC[C@@H]1O[C@@H]2C[C@H]3[C@@H]4C[C@H](F)C5=CC(=O)C=C[C@]5(C)[C@@]4(F)[C@@H](O)C[C@]3(C)[C@]2(C(=O)OCOC(=O)OCC)O1: rule not met
CC(=O)OC(C)OC(=O)C12OC(C)(C)OC1CC1C3CC(F)C4=CC(=O)C=CC4(C)C3(F)C(O)CC12C (single isomer, unassigned) [Example 5 epimer B]: rule not met
CCC[C@@H]1O[C@@H]2C[C@H]3[C@@H]4CCC5=CC(=O)C=C[C@]5(C)[C@@]4(F)[C@@H](O)C[C@]3(C)[C@]2(C(=O)OC(C)OC(=O)OCC)O1 (single isomer, unassigned): rule met

Now for a further compound.
Problem: Decide: is the reported value of relative binding affinities (RBA) to the glucocorticoid receptor for CCOC(=O)OC(C)OC(=O)C12OC(C)(C)OC1CC1C3CC(F)C4=CC(=O)C=CC4(C)C3(F)C(O)CC12C (single isomer, unassigned) [Example 4 epimer B] equal to or greater than 0.2?
Solution: rule met
